# TESTED ON: HLA-A*02:11
# ASSAY PROTOCOL: IEDB peptide-MHC binding, purified MHC/competitive/fluorescence; filed as Kd, often an IC50 or EC50 that approximates it; bounds were set here for any values at or beyond the usual limits of such assays
# TEST CONTEXT: source organism: Fowlpox virus
READOUT TYPE: Kd (nM)
Output spec: scalar in nM, unitless text.

Exercise: Data request, read-out Kd, for `VIMWYNYLF`
Key: 4.7

---

Listed sequences paired with reported Kd
# TESTED ON: HLA-A*68:01
# ASSAY PROTOCOL: IEDB peptide-MHC binding, purified MHC/competitive/radioactivity; filed as Kd, often an IC50 or EC50 that approximates it; bounds were set here for any values at or beyond the usual limits of such assays
# TEST CONTEXT: source organism: Mammarenavirus brazilense
Output spec: scalar in µM, unitless text.

DNQKLSYLK = 7.48

Would you kindly look at the next entry?
Exercise: Data request, read-out Kd, for `LFFTTTLFLH`
Key: 0.445

---

# TESTED ON: HLA-B*15:01
# ASSAY PROTOCOL: IEDB peptide-MHC binding, purified MHC/competitive/fluorescence; filed as Kd, often an IC50 or EC50 that approximates it; bounds were set here for any values at or beyond the usual limits of such assays
# TEST CONTEXT: source organism: Influenza A virus (A/81/HO)
READOUT TYPE: pKd
Just so you know, pKd here is -log10 of the concentration in molar units; reply with that number alone.

Exercise: Data request, read-out pKd, for `WMACNSAAF`
Key: 7.84

---

# TESTED ON: HLA-B*39:01
# ASSAY PROTOCOL: IEDB peptide-MHC binding, purified MHC/competitive/fluorescence; filed as Kd, often an IC50 or EC50 that approximates it; bounds were set here for any values at or beyond the usual limits of such assays
# TEST CONTEXT: source organism: Zaire ebolavirus
pKd: −log10 of the molar value.
READOUT TYPE: pKd

Consider the worked cases shown below.
KEGKLQCRI = ≤ 4.70
HPLARTAKV = ≤ 4.70

Exercise: Data request, read-out pKd, for `RDRFKRTSF`
Key: ≤ 4.70

---

# TESTED ON: HLA-A*31:01
# ASSAY PROTOCOL: IEDB peptide-MHC binding, purified MHC/direct/fluorescence; filed as Kd, often an IC50 or EC50 that approximates it; bounds were set here for any values at or beyond the usual limits of such assays
# TEST CONTEXT: source organism: Burkholderia mallei
pKd: −log10 of the molar value.
READOUT TYPE: pKd

Exercise: Data request, read-out pKd, for `ISDSAQNMM`
Key: ≤ 4.70

---

# TESTED ON: HLA-B*58:01
# ASSAY PROTOCOL: IEDB peptide-MHC binding, purified MHC/direct/fluorescence; filed as Kd, often an IC50 or EC50 that approximates it; bounds were set here for any values at or beyond the usual limits of such assays
# TEST CONTEXT: source organism: Camelpox virus CMS
READOUT TYPE: pKd
Just so you know, pKd here is -log10 of the concentration in molar units; reply with that number alone.

Exercise: Data request, read-out pKd, for `SSDDIPPRW`
Key: 7.55

---

# TESTED ON: HLA-A*01:01
# ASSAY PROTOCOL: IEDB peptide-MHC binding, purified MHC/competitive/radioactivity; filed as Kd, often an IC50 or EC50 that approximates it; bounds were set here for any values at or beyond the usual limits of such assays
# TEST CONTEXT: source organism: Dengue virus 1 Brazil/97-11/1997
READOUT TYPE: Kd (µM)
Output spec: scalar in µM, unitless text.

Exercise: Data request, read-out Kd, for `LTLTAAVLML`
Key: 6.16

---

# TESTED ON: HLA-B*57:01
# ASSAY PROTOCOL: IEDB peptide-MHC binding, purified MHC/competitive/radioactivity; filed as Kd, often an IC50 or EC50 that approximates it; bounds were set here for any values at or beyond the usual limits of such assays
# TEST CONTEXT: source organism: Dengue virus 2 Jamaica/1409/1983
Listed sequences paired with reported Kd
Output spec: scalar in nM, unitless text.

Consider the worked cases shown below.
MSSGNLLFTG = 163
IITASILLW = 11.1
PTAGILKRW = 200
PTSRTTWSIH = 7680

Would you kindly look at the next entry?
Exercise: Data request, read-out Kd, for `ICSAVPSHW`
Key: 2.72

---

# TESTED ON: HLA-A*11:01
# ASSAY PROTOCOL: IEDB peptide-MHC binding, purified MHC/competitive/fluorescence; bounds were set here for any values at or beyond the usual limits of such assays
# TEST CONTEXT: source organism: Vaccinia virus Copenhagen
Listed sequences paired with reported IC50
Output spec: scalar in µM, unitless text.

Exercise: Data request, read-out IC50, for `ITFALKKLI`
Key: 57.7

Exercise: Data request, read-out IC50, for `LSVETITEK`
Key: 6.6

Exercise: Data request, read-out IC50, for `ANCSSISIK`
Key: 2.78

---

# TESTED ON: HLA-A*02:01
# ASSAY PROTOCOL: IEDB peptide-MHC binding, purified MHC/competitive/fluorescence; filed as Kd, often an IC50 or EC50 that approximates it; bounds were set here for any values at or beyond the usual limits of such assays
# TEST CONTEXT: source organism: Canarypox virus
Listed sequences paired with reported Kd
Output spec: scalar in nM, unitless text.

YIIPCILIL = 59.4

Would you kindly look at the next entry?
Exercise: Data request, read-out Kd, for `YMMDGNECP`
Key: 247

---

# TESTED ON: HLA-B*40:02
# ASSAY PROTOCOL: IEDB peptide-MHC binding, purified MHC/competitive/radioactivity; filed as Kd, often an IC50 or EC50 that approximates it; bounds were set here for any values at or beyond the usual limits of such assays
# TEST CONTEXT: source organism: Mammarenavirus lassaense
READOUT TYPE: Kd (µM)
Output spec: scalar in µM, unitless text.

Exercise: Data request, read-out Kd, for `HDLMKQKCL`
Key: 1.57

---

# TESTED ON: HLA-A*03:01
# ASSAY PROTOCOL: IEDB peptide-MHC binding, purified MHC/competitive/fluorescence; filed as Kd, often an IC50 or EC50 that approximates it; bounds were set here for any values at or beyond the usual limits of such assays
# TEST CONTEXT: source organism: Escherichia coli 536
READOUT TYPE: Kd (nM)
Output spec: scalar in nM, unitless text.

TVKRYLQAK = 2840

Would you kindly look at the next entry?
Exercise: Data request, read-out Kd, for `GMSSRAIAR`
Key: 15

---

# TESTED ON: HLA-B*08:01
# ASSAY PROTOCOL: IEDB peptide-MHC binding, purified MHC/competitive/fluorescence; bounds were set here for any values at or beyond the usual limits of such assays
# TEST CONTEXT: source organism: Homo sapiens
READOUT TYPE: IC50

Exercise: Data request, read-out IC50, for `LPSCPTNFCIF`
Key: ≥ 20 µM

---

# TESTED ON: HLA-A*29:02
# ASSAY PROTOCOL: IEDB peptide-MHC binding, purified MHC/competitive/fluorescence; filed as Kd, often an IC50 or EC50 that approximates it; bounds were set here for any values at or beyond the usual limits of such assays
# TEST CONTEXT: source organism: Desulfuromonas acetoxidans DSM 684
READOUT TYPE: pKd
Just so you know, pKd here is -log10 of the concentration in molar units; reply with that number alone.

Exercise: Data request, read-out pKd, for `FGMPNPEGY`
Key: 7.64

---

# TESTED ON: HLA-B*15:17
# ASSAY PROTOCOL: IEDB peptide-MHC binding, purified MHC/direct/fluorescence; filed as Kd, often an IC50 or EC50 that approximates it; bounds were set here for any values at or beyond the usual limits of such assays
# TEST CONTEXT: source organism: Influenza A virus (A/chicken/Hubei/wm/1997(H5N1))
pKd: −log10 of the molar value.
READOUT TYPE: pKd

Exercise: Data request, read-out pKd, for `EKPKFLPDL`
Key: ≤ 4.70

---

# TESTED ON: HLA-A*03:01
# ASSAY PROTOCOL: IEDB peptide-MHC binding, purified MHC/competitive/radioactivity; filed as Kd, often an IC50 or EC50 that approximates it; bounds were set here for any values at or beyond the usual limits of such assays
# TEST CONTEXT: source organism: Mammarenavirus juninense
READOUT TYPE: Kd

Exercise: Data request, read-out Kd, for `SWPLQCPLDH`
Key: ≥ 70 µM

---

# TESTED ON: HLA-A*03:01
# ASSAY PROTOCOL: IEDB peptide-MHC binding, purified MHC/direct/fluorescence; filed as Kd, often an IC50 or EC50 that approximates it; bounds were set here for any values at or beyond the usual limits of such assays
# TEST CONTEXT: source organism: Limestone Canyon virus
pKd: −log10 of the molar value.
READOUT TYPE: pKd

Exercise: Data request, read-out pKd, for `IILKALYML`
Key: ≤ 4.70
